# System: SK-BR-3
# TEST_DESCRIPTION: drug sensitivity score (DSS), CellTiter-Glo (DSS (AUC-based score)); higher = stronger drug effect (viability inhibition or cytotoxicity); extreme values may be limits of the assay
# RUN_CONDITIONS: incubation time: 72 h

| COMPOUND | drug sensitivity score |
| --- | --- |
| NC(=O)c1ccc(I)c([N+](=O)[O-])c1 | 0 |
| COCC1(CO)C(=O)C2CCN1CC2 (stereo not given) | 0 |
| O=C(/C=C/c1cccc(S(=O)(=O)Nc2ccccc2)c1)NO | 18.3 |
| O=C(Nc1ccncc1)C(=O)c1cn(Cc2ccc(Cl)cc2)c2ccccc12 | 12.8 |
| COC(=O)c1ccc2c(c1)NC(=O)/C2=C(\Nc1ccc(N(C)C(=O)CN2CCN(C)CC2)cc1)c1ccccc1 | 0 |

====

Below is a list of entries, each paired with its recorded drug sensitivity score value.
# System: CAL-148
# TEST_DESCRIPTION: drug sensitivity score (DSS), CellTiter-Glo (DSS (AUC-based score)); higher = stronger drug effect (viability inhibition or cytotoxicity); extreme values may be limits of the assay
# RUN_CONDITIONS: incubation time: 72 h
PROPERTY: drug sensitivity score

| COMPOUND | RESULT |
| --- | --- |
| S=P(N1CC1)(N1CC1)N1CC1 | 0 |
| COCC1(CO)C(=O)C2CCN1CC2 (stereo unspecified) | 0 |
| Nc1cc(C(F)(F)F)c(-c2cc(N3CCOCC3)nc(N3CCOCC3)n2)cn1 | 0 |
| COc1cc2/c(=N/c3ccc(Br)cc3F)nc[nH]c2cc1OCC1CCN(C)CC1 | 0 |
| CCn1c(-c2nonc2N)nc2cnc(Oc3cccc(NC(=O)c4ccc(OCCN5CCOCC5)cc4)c3)cc21 | 2.07 |
| CCc1c2c(nc3ccc(OC(=O)N4CCC(N5CCCCC5)CC4)cc13)-c1cc3c(c(=O)n1C2)COC(=O)[C@]3(O)CC | 7.67 |
| COCC[n+]1c2c(n(Cc3cnccn3)c1C)C(=O)c1ccccc1C2=O | 33 |
| CO[C@H]1C[C@@H]2CC[C@@H](C)[C@@](O)(O2)C(=O)C(=O)N2CCCC[C@H]2C(=O)O[C@H]([C@H](C)C[C@@H]2CC[C@@H](OP(C)(C)=O)[C@H](OC)C2)CC(=O)[C@H](C)/C=C(\C)[C@@H](O)[C@@H](OC)C(=O)[C@H](C)C[C@H](C)/C=C/C=C/C=C/1C | 7.53 |
| CNC(=O)c1ccc(N2C(=S)N(c3ccc(C#N)c(C(F)(F)F)c3)C(=O)C23CCC3)cc1F | 0 |
| Cc1[nH]c2ccccc2c1CCNCc1ccc(/C=C/C(=O)NO)cc1 | 20 |
| N#Cc1ccc(COC[C@H]2O[C@@H](n3c(NCc4ccc(Cl)c(Cl)c4)nc4c(N)ncnc43)[C@H](O)[C@@H]2O)cc1 | 0 |
| O=C(Nc1ccncc1)C(=O)c1cn(Cc2ccc(Cl)cc2)c2ccccc12 | 0 |
| CNC(=O)c1cc(Oc2ccc(NC(=O)Nc3ccc(Cl)c(C(F)(F)F)c3)c(F)c2)ccn1 | 0.856 |
| Cc1cc(Nc2cc(CN3CCOCC3)c3nc(C)c(Cc4ccc(Cl)cc4F)n3n2)n[nH]1 | 0 |
| Cc1ccc(NC(=O)c2ccc(CN3CCN(C)CC3)cc2)cc1Nc1nc(-c2cccnc2)cs1 | 0 |
| COc1cc(O)c2c(c1)/C=C/C[C@H](O)[C@H](O)C(=O)/C=C\C[C@H](C)OC2=O | 7.16 |
